Entry source: PubChem BioAssay (NCI)

Could you please report measured growth inhibition for the items listed next?
experimentSummary: NCI Yeast Anticancer Drug Screen. Data for the mec2-1 strain (AID 157)
testSettings: S. cerevisiae mec2-1 strain, at 3.7 µM, active compounds read high
About 79,000 compounds went through this panel and 15% of them were active in at least one assay; those are over-represented in the sample as a whole.
Number in %, nothing else.

The measured growth inhibition associated with CCCCCCCCN1C(=O)c2ccccc2C1=O reads -4

Form: molecule = O=C(Nc1ccc2c(c1)Cc1c-2ccc([N+](=O)[O-])c1F)C(F)(F)F ; growth inhibition = 0

Value of measured growth inhibition for the entry COC(=O)/C=C1/OC(c2ccc(Br)cc2)=C(Br)C1=O : -1

Reported growth inhibition for OCCNCCOc1ccc(/C(=C(/Cl)c2ccccc2)c2ccccc2)cc1 was -32

Measured growth inhibition, Clc1c(Cl)c(Cl)c2c(nnn2C2CCCO2)c1Cl (centres undefined) : -1

For this molecule ( Cc1onc(-c2ccccc2Cl)c1C1=N/C(=C/c2cc(Cl)cc(Cl)c2O)C(=O)O1 ), measured growth inhibition is -35

// growth inhibition lookup, molecule = O=NN(CCCl)C(=O)NCCCl , result: 0

Per the record, O=C1c2ccccc2C(=O)c2cc(S(=O)(=O)Nc3ccccc3)ccc21 has growth inhibition of 5

Sure, the documented growth inhibition for O=C1NC(c2c(Cl)cccc2Cl)Nc2ccccc21 (centres undefined) is -9

Input O=S(=O)(c1cc(Cl)ccc1O)c1cc(Cl)ccc1O . Output growth inhibition: 93

Looking up O=C1c2cccc3cc([N+](=O)[O-])cc(c23)C(=O)N1CCN1CCCC1 , I found its growth inhibition recorded as 5

Per the record, O=NN(CCCl)C(=O)NC1CCCCC1 has growth inhibition of 4

O=[N+]([O-])c1cccc2nc3ccccc3c(NCCc3cccc[n+]3[O-])c12 yielded growth inhibition of 18

For record O=C(NC(=S)Nc1ccccn1)c1ccccc1 the listed growth inhibition is -55
